Below, IC50 values reported for Insulin-like growth factor 1 receptor (Homo sapiens, UniProt P08069) across several publications.

Below: 3 compounds and their reported IC50.
{"Smiles": "CCN(CC)C(=O)c1ccc(OC[C@H](O)CNc2ccnc(O)c2-c2nc3cc4c(cc3[nH]2)C(=O)N(C2CCN(C)CC2)C4=O)c(OC)c1", "Reported": "> 15000 nM"}
{"Smiles": "CCc1cc(Nc2ncc(Br)c(Nc3ccc(-c4cn(C)nc4C#N)cc3P(C)(C)=O)n2)c(OC)cc1N1CCC(N2CCN(C)CC2)CC1", "Reported": "330 nM"}
{"Smiles": "C=CC(=O)Nc1cc(Nc2nccc(-c3cn(C)c4ccccc34)n2)c(OC)cc1N(C)C12CC(CN(C)C)(C1)C2", "Reported": "≥ 100 nM"}

Sample CCc1cc(Nc2ncc(Br)c(Nc3ccc(-c4cnc(N(C)C)cn4)cc3P(C)(C)=O)n2)c(OC)cc1N1CCC(N2CCN(C)CC2)CC1 , system: Insulin-like growth factor 1 receptor (Homo sapiens, UniProt P08069). Its IC50 is 238 nM

Form: item CCc1cc(Nc2ncc(Br)c(Nc3ccc(-n4cc(C)cn4)cc3P(C)(C)=O)n2)c(OC)cc1N1CCC(N2CCN(C)CC2)CC1 ; test system Insulin-like growth factor 1 receptor (Homo sapiens, UniProt P08069); IC50: 219 nM

Fill in: Insulin-like growth factor 1 receptor (Homo sapiens, UniProt P08069) IC50 for O=C1c2cc3nc(-c4c(NC[C@@H](O)c5cccc(Cl)c5)cc[nH]c4=O)[nH]c3cc2C(=O)N1CCc1c[nH]cn1 = 500 to 5000 nM

Observed IC50, Insulin-like growth factor 1 receptor (Homo sapiens, UniProt P08069), CN1CCC(N2C(=O)c3cc4nc(-c5c(NC[C@@H](O)COc6cccnc6)ccnc5O)[nH]c4cc3C2=O)CC1 : 5000 to 15000 nM

Record C[C@]1(O)C[C@@H](n2nc(-c3ccc4ccc(-c5ccccc5F)nc4c3F)c(C(N)=O)c2N)C1 has Insulin-like growth factor 1 receptor (Homo sapiens, UniProt P08069) IC50 equal to ≤ 100 nM

Lab entry: Insulin-like growth factor 1 receptor (Homo sapiens, UniProt P08069) assay, compound Cc1ccc(Cl)cc1OC[C@@H](O)CNc1ccnc(O)c1-c1nc2cc3c(cc2[nH]1)C(=O)N(C1CCN(C)CC1)C3=O , IC50 = 500 to 5000 nM

IC50 of COc1nc(-c2ccccc2)nc2cc(-c3nn([C@H]4C[C@@](C)(O)C4)c(N)c3C(N)=O)ccc12 , assay on Insulin-like growth factor 1 receptor (Homo sapiens, UniProt P08069), is 100 to 1000 nM
